Source listed as patent US12257224B2.

- experiment.summary: Example 7: PK analysis, serum concentration after one vs two 70 mg nasal doses
- Format: in vivo, human
- condition.details: one 70 mg nasal dose; Time 1450
recorded.metric: serum concentration, Max (ng/mL)

[[record]]
molecule = "COC(=O)c1cccc(CCN(C)CCCC(C#N)(c2ccc(OC)c(OC)c2)C(C)C)c1 (stereo not shown)"
reading_unit = "ng/mL"
measured_value = 1.2


----------
- experiment.summary: Example 7: PK analysis, serum concentration after one vs two 70 mg nasal doses
- Type: in vivo, human
- condition.details: human, serum, other: nasal, two 70 mg nasal doses, second approximately 10 minutes after first; Time 15; read-out: serum concentration, Median
recorded.metric: concentration at 15 min (ng/mL)

[[record]]
molecule = "COC(=O)c1cccc(CCN(C)CCCC(C#N)(c2ccc(OC)c(OC)c2)C(C)C)c1 (stereo not shown)"
recorded_metric = "concentration at 15 min"
measured_value = 76.9

